Literature roundup of human PDE10A2 (Homo sapiens (Human)) data, read-out log10(IC50).
Remember, log10 of IC50, in nM.

# input compound: COc1cc(CCc2nc3c(OC)ccc(C)n3n2)nc2ccccc12 ; wanted: its log10(IC50)
1.54

# input compound: Cc1c(-c2ccc(-c3ccccc3CNc3ccccc3)cc2)nc2ccc(F)cc2c1C(=O)O ; wanted: its log10(IC50)
1.11

# input compound: Cc1nc2ccc(CCc3nc(-c4cnccn4)cn3C)nn2c1C ; wanted: its log10(IC50)
1.52

# input compound: Cc1ncc(C)n2nc(C=Cc3cn4c(n3)-c3ccccc3C4)nc12 (racemic) ; wanted: its log10(IC50)
0.64

# input compound: CC(C)c1noc(CNC(=O)c2cnn(C)c2C(=O)Nc2ccn3cc(-c4ccccc4)nc3n2)n1 ; wanted: its log10(IC50)
3.00
